Record form. Attribute: T/C. Fill in for each entry.
System: CD2F1 mice, L1210 leukemia ip, survival T/C
assay name: NCI In Vivo Anticancer Drug Screen. Data for tumor model L1210 Leukemia (intraperitoneal) in CD2F1 (CDF1) mice
particulars: endpoint: mean survival time; dose: 400.0 mg/kg/injection; schedule: Q01DX001 (ip); vehicle: saline with Tween-80; higher = longer survival
Toxic doses and inconclusive results are not listed.

Task: Need T/C, item OC1CCCCCCCCCCC1C(O)(C(F)(F)F)C(F)(F)F (stereo unspecified)
Result: 91 % of control

Task: Record request: T/C value, item COC(=O)CCC(NC(=O)c1cccc(N(C)C=O)c1)C(=O)OC (stereo unspecified)
Result: 104 % of control

Task: I would be grateful if you could share the reported T/C for `Cc1cccc(C)c1N` .
Result: 91 % of control

Task: Bench note: what T/C did `O=C(/C(Br)=C/c1ccccc1[N+](=O)[O-])c1ccccc1` show?
Result: 98 % of control

Task: Can you share its T/C? I mean this compound: `COc1ccc(C(=S)c2ccc(OC)cc2)cc1`
Result: 101 % of control

Task: # lookup: T/C of `N=C(N)N(CCS)CC(=O)O`
Result: 90 % of control

Task: Query: T/C; subject: CC([N+](=O)[O-])S(C)(=O)=O (stereo unspecified)
Result: 101 % of control

Task: # input compound: `CCOC(=O)C1=C(C)/C(=C/c2[n-]c(C)c(C(=O)OCC)c2C)N=C1C.CCOC(=O)C1=C(C)/C(=C/c2[n-]c(C)c(C(=O)OCC)c2C)N=C1C.[Co+2]` ; wanted: its T/C
Result: 91 % of control

Task: Fill in the blank: the reported T/C of `O=c1[nH]cc(Cc2cccc3ccccc23)c(=O)[nH]1` is ____.
Result: 86 % of control

Task: Quick check: T/C of `Nc1nc[nH]c(=O)c1N` ?
Result: 102 % of control

Task: Quick one: T/C of COc1ccc(C2NN(C)C3(O)C(=O)N(C4CCCCC4)CC23)cc1 (stereo unspecified) ?
Result: 96 % of control
